# Epidermal growth factor receptor (Homo sapiens, UniProt P00533, L858R): IC50 values follow
# Sequence (P00533 25-1210 L858R limits assumed): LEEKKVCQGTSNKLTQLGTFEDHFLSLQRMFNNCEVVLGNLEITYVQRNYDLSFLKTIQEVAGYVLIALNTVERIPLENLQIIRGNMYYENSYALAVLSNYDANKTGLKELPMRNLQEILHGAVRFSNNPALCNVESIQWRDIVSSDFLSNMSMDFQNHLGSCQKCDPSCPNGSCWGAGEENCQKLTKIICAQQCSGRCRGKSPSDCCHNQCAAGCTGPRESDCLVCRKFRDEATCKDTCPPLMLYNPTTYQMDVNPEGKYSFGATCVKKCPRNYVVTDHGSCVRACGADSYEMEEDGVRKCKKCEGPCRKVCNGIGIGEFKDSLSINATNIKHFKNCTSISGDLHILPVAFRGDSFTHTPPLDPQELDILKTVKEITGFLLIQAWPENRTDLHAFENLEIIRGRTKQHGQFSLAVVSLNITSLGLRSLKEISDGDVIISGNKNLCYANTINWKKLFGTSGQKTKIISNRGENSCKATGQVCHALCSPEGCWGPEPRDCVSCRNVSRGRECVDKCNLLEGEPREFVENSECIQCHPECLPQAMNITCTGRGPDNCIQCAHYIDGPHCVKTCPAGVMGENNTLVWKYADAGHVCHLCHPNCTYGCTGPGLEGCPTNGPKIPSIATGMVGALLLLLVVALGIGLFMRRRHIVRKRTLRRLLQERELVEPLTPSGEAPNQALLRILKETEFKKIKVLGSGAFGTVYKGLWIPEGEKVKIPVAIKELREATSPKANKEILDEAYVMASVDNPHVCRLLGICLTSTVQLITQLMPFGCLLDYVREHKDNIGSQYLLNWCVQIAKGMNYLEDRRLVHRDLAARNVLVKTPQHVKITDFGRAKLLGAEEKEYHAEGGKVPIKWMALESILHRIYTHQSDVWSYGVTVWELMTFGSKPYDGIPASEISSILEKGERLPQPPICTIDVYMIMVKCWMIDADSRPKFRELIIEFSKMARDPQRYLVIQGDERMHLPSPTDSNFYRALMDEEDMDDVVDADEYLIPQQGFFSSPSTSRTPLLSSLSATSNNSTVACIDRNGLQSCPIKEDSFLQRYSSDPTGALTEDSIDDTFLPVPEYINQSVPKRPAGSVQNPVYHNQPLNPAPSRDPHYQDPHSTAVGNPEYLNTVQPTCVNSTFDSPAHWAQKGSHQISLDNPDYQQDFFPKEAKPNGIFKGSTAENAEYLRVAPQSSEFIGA

Worked cases, answers included:
>  <COMPOUND>
CCOc1cc2ncc(C#N)c(Nc3ccc(OCc4cccc(F)c4)c(Cl)c3)c2cc1NC(=O)CCCCC1CCSS1 (stereo not drawn)

>  <MEASUREMENT_TARGET>
Epidermal growth factor receptor (Homo sapiens, UniProt P00533, L858R)

>  <IC50>
33 nM

$$$$
>  <COMPOUND>
COc1cc2ncnc(Nc3ccc(OCc4cccc(F)c4)c(Cl)c3)c2cc1NC(=O)C1CSSC1

>  <MEASUREMENT_TARGET>
Epidermal growth factor receptor (Homo sapiens, UniProt P00533, L858R)

>  <IC50>
6.5 nM

$$$$
>  <COMPOUND>
Cc1ccc(Oc2ccc(Nc3c(C#N)cnc4ccc(NC(=O)CC5CCSS5)cc34)cc2C)cn1 (stereo not drawn)

>  <MEASUREMENT_TARGET>
Epidermal growth factor receptor (Homo sapiens, UniProt P00533, L858R)

>  <IC50>
> 10000 nM

$$$$
>  <COMPOUND>
Cc1ccc(Oc2ccc(Nc3c(C#N)cnc4ccc(NC(=O)C5CSSC5)cc34)cc2C)cn1

>  <MEASUREMENT_TARGET>
Epidermal growth factor receptor (Homo sapiens, UniProt P00533, L858R)

>  <IC50>
> 10000 nM

$$$$
>  <COMPOUND>
CCOc1cc2ncc(C#N)c(Nc3ccc(OCc4cccc(F)c4)c(Cl)c3)c2cc1NC(=O)CC1CCSS1 (stereo not drawn)

>  <MEASUREMENT_TARGET>
Epidermal growth factor receptor (Homo sapiens, UniProt P00533, L858R)

>  <IC50>
10.9 to 11 nM

$$$$

Record request: IC50 value, item `COc1cc2ncnc(Nc3ccc(Oc4ccc(C)nc4)c(C)c3)c2cc1NC(=O)C1CSSC1`
413 nM

Record request: IC50 value, item N#Cc1cnc2ccc(NC(=O)CC3CCSS3)cc2c1Nc1ccc(OCc2cccc(F)c2)c(Cl)c1 (stereo not drawn)
36 nM

Record request: IC50 value, item CCOc1cc2ncc(C#N)c(Nc3ccc(F)c(Cl)c3)c2cc1NC(=O)CC1CCSS1 (stereo not drawn)
300 nM
